Assay: NCI Yeast Anticancer Drug Screen. Data for the mlh1 rad18 strain (AID 175)
Conditions: S. cerevisiae mlh1 rad18 strain growth inhibition, active compounds read high; at 50.0 µM unless noted
This is part of a sample that, as a whole, favours compounds with a hit. Of some 79,000 tested, about 15% had one in any assay.
measuredMetric: growth inhibition (%)
Entry rule: numbers only, all in %.

# growth inhibition (compound: CCSC(=Nc1nc2ccc([N+](=O)[O-])cc2s1)SCC ) is 12.2

# growth inhibition (compound: Clc1ccccc1NN(Cc1ccncc1)c1ccccc1Cl ) is 53.1

# growth inhibition (compound: CN1N=CSC12C(=O)N(c1ccccc1)C(=O)N2c1ccccc1 (stereo not given) ) is -14.2

# growth inhibition (compound: Cc1cccc(C2=N/C(=C\c3ccc(N(C)C)cc3)C(=O)O2)c1 ) is -6.1

# growth inhibition (compound: COc1ccccc1C(=O)Oc1ccc(OC(=O)c2ccccc2OC)c(C(C)=O)c1 ) is 35.4

# growth inhibition (compound: COc1ccc(OC2OC(CO)C(O)C(O)C2O)cc1 (stereo not given) ) is -50.6

# growth inhibition (compound: CC(=O)OC[C@@]12C[C@H]3C(=O)C(C)(C)C[C@H]3[C@]1(C)[C@@H](OC(C)=O)[C@]1(O)[C@H]([C@@H](OC(=O)c3ccccc3)[C@@H](C)[C@H]1OC(C)=O)[C@H]2OC(C)=O ) is -3.15

# growth inhibition (compound: CN(C)c1ccc(/[N+]([O-])=N/N2C(=O)c3ccccc3C2=O)cc1 ) is -25.5

# growth inhibition (compound: Cc1ccc(/C=N/NC(N)=S)nn1 ) is 5.4

# growth inhibition (compound: CC1(O)CCCC1(C)O (stereo not given) ) is -23.8

---

Assay: NCI Yeast Anticancer Drug Screen. Data for the bub3 strain (AID 167)
Conditions: S. cerevisiae bub3 mutant strain, active compounds read high; at 50.0 µM unless noted
This is part of a sample that, as a whole, favours compounds with a hit. Of some 79,000 tested, about 15% had one in any assay.
Provide the reported growth inhibition of each item.
Entry rule: numbers only, all in %.

# growth inhibition (molecule: Cc1ccc(C)n1-n1c(Cc2ccc(Cl)cc2)n[nH]c1=O ) is -4.4

# growth inhibition (molecule: O=C1OCCOCCOCCOCCOCCOC(=O)c2cccc1n2 ) is 12.5

# growth inhibition (molecule: CC1(c2ccccc2)CC/C(=C/c2ccccc2)C1=O (stereo unspecified) ) is 33.3

# growth inhibition (molecule: OC(c1ccc(OCc2ccccc2)cc1)c1ccccn1 (stereo unspecified) ) is -5.7

# growth inhibition (molecule: CCC(O)c1ccc(OCc2ccccc2)c(OC)c1 (stereo unspecified) ) is -4.05

# growth inhibition (molecule: C=C(C)C(=NC(C)(C)C)Nc1ccc(C(=O)OCC)cc1 ) is -24.1

---

Experiment: NCI Yeast Anticancer Drug Screen. Data for the bub3 strain (AID 167)
Conditions: S. cerevisiae bub3 mutant strain, active compounds read high; at 50.0 µM unless noted
About 79,000 compounds went through this panel and 15% of them were active in at least one assay; those are over-represented in the sample as a whole. Where a SMILES comes first, the peptide text is derived from it. The star is where a group is joined. Cbz = O=C(OCc1ccccc1)*; NHNH2 = NN*
Provide the reported growth inhibition of each item.
Entry rule: numbers only, all in %.

# growth inhibition (molecule: O=C(Oc1cccc(OC(=O)c2ccccc2O)c1)c1ccccc1O ) is 25.9

# growth inhibition (molecule: Cc1ccc(S(=O)(=O)N/N=C/c2ccoc2)cc1 ) is 4.45

# growth inhibition (molecule: O=C(O)c1nc2ccccc2nc1C(=O)O ) is -7.95

# growth inhibition (molecule: C=C=C(C)[Si](C)(C)C ) is -51.5

# growth inhibition (molecule: O=S(=O)(NCCSSCCNS(=O)(=O)c1ccccc1)c1ccccc1 ) is 23.6

# growth inhibition (molecule: CCCCCCCCCOCC(=O)O ) is 2.3

# growth inhibition (molecule: Nc1nc(-c2ccc(Cl)cc2)cc(-c2cc(-c3ccc(Cl)cc3)nc(N)n2)n1 ) is -11.2

# growth inhibition (molecule: CCCCCCCCC(=O)NCCOC ) is -2.95

# growth inhibition (molecule: CCOC(=O)CCC(NC(=O)OCc1ccccc1)C(=O)NC(CCC(=O)OCC)C(=O)NN (centres undefined) (Cbz-Glu(OEt)-Glu(OEt)-NHNH2; configuration not given here) ) is 23.2

# growth inhibition (molecule: Cc1c2c(c(C)c3c1C(=O)c1cc4c(cc1C3=O)OCO4)OCO2 ) is -31.9

# growth inhibition (molecule: CCNC(=O)COc1ccc(Cl)c(C)c1 ) is -23.2

# growth inhibition (molecule: C=C(C)CC(=O)O.CC(=O)[CH-]C(C)=O.CC(=O)[CH-]C(C)=O.CC(=O)[CH-]C(C)=O.[Zn+2].[Zn] ) is -0.85

# growth inhibition (molecule: OCC1OC(n2cnc3c(/C=C(/O)c4ccccc4)ncnc32)C(O)C1O (centres undefined) ) is -27.1

# growth inhibition (molecule: O=C1CN(C2OC(CO)C(O)C2O)C(=O)NC1=O (centres undefined) ) is 9.15

# growth inhibition (molecule: CC(C)(C)CC(C)(C)c1ccc(O)c(CN2CCCCC2)c1 ) is 16.6

# growth inhibition (molecule: O=C(NC12CC3CC(CC(C3)C1)C2)C(=O)c1c[nH]c2ccc([N+](=O)[O-])cc12 ) is -15.1

# growth inhibition (molecule: CCSC(=O)C(F)(F)F ) is -18.1

# growth inhibition (molecule: C=CCS(=O)(=O)CC=C ) is -15.6

# growth inhibition (molecule: CN(C)CCS(=O)(=O)c1ccc(Cl)cc1 ) is 9.85

# growth inhibition (molecule: COC(=O)C1=Nc2c(C)nn(-c3ccccc3)c2N=C(c2ccc([N+](=O)[O-])cc2)C1 ) is -34

# growth inhibition (molecule: CCOC(=O)c1cc(C)ncc1N ) is -0.95

# growth inhibition (molecule: COc1ccc(OC)c2[nH]c(=O)c(C)nc12 ) is 4.35

# growth inhibition (molecule: CSc1nc(SC)c2ncn(C3CC(Oc4ccc(C)cc4)C(COc4ccc(C)cc4)O3)c2n1 (centres undefined) ) is 8.45

# growth inhibition (molecule: CCCCOC(=O)C(C)OC(=O)C(C)Oc1cc(Cl)c(Cl)cc1Cl (centres undefined) ) is 3.9

---

Assay: NCI Yeast Anticancer Drug Screen. Data for the mec2-1 strain (AID 157)
Conditions: S. cerevisiae mec2-1 strain, active compounds read high; at 50.0 µM unless noted
Compounds without any hit were thinned out: in the full panel of roughly 79,000, 15% have a hit.
Provide the reported growth inhibition of each item.
Entry rule: numbers only, all in %.

# growth inhibition (molecule: CN1C=C(C(N)=O)Cc2ccsc21 ) is -10.8

# growth inhibition (molecule: Cc1cccc2oc3c(c(=O)c12)CC(O)C(C)(C)O3 (centres undefined) ) is -3.85

# growth inhibition (molecule: COc1ccc(O)c2c1C(=O)CCCC2=O ) is -0.75

# growth inhibition (molecule: CC(=O)Oc1c(C)c2c(c3ncccc13)OC(C)C2 (centres undefined) ) is 14.1

# growth inhibition (molecule: Nc1ncc2c(=O)[nH][nH]c(=O)c2n1 ) is 31.6

# growth inhibition (molecule: COC(=O)CCC(=O)Nc1cc(C)ccc1C ) is -19.9

# growth inhibition (molecule: COC(=O)CSc1cc(Cl)c(C)cc1S(=O)(=O)Nc1n[nH]c(N)n1 ) is -7.5

# growth inhibition (molecule: COc1cccc(OC)c1NC(=O)C(=O)Nn1c(NNC(=O)c2ccncc2)nc2ccccc2c1=O ) is 26.5

# growth inhibition (molecule: CC(N1CCS(=O)(=O)CC1)P(=O)(O)O (centres undefined) ) is 8.3

# growth inhibition (molecule: C#CCSC(=S)NNc1ccccc1 ) is 29.1

# growth inhibition (molecule: COC1OC(COC(=O)NCCCCC(=O)C(F)(F)F)C(O)C(O)C1O (centres undefined) ) is 22.6

# growth inhibition (molecule: O=C(OCc1ccccc1)ON1C(=O)C2C3C=CC(C3)C2C1=O (centres undefined) ) is -54.2

# growth inhibition (molecule: C#CCC(C(=O)OC)N(CC)CC (centres undefined) ) is -21.9

# growth inhibition (molecule: CC12CC(O)C3C(CCC4CC(O)CCC43C)C1CCC2C(=O)CO (centres undefined) ) is 14.2

# growth inhibition (molecule: S=c1[nH]c2ccccc2c(=S)n1CN1CCCCC1 ) is -27.4

# growth inhibition (molecule: COc1ccc2nc3cc([N+](=O)[O-])ccc3c(NCCCN(CCO)CCO)c2c1 ) is -1.75

# growth inhibition (molecule: COP(=O)(OC)/C(=C/c1cn(C(C)=O)c2ccccc12)NC(C)=O ) is -49.9

# growth inhibition (molecule: C[N+]12CCCCC1C(CN1C(=O)c3ccccc3C1=O)CCC2 (centres undefined) ) is -6.05

# growth inhibition (molecule: CC1=CC(C)C(C(=O)OCC(C)C)C(C(=O)OCC(C)C)C1 (centres undefined) ) is -6

# growth inhibition (molecule: CCN(CC)C(=O)CCn1cc(F)c(=O)[nH]c1=O ) is -51

# growth inhibition (molecule: Cc1ccc(C(=O)OCC(C)C)s1 ) is 1.35

# growth inhibition (molecule: c1ccc(CN(Cn2cccn2)Cn2cccn2)nc1 ) is -9

# growth inhibition (molecule: NC(=S)Nc1nnc(-c2ccc(-c3nnc(NC(N)=S)o3)cc2)o1 ) is 6.65

# growth inhibition (molecule: COC(=O)C(Cc1ccccc1)N=Cc1c(O)c(O)c(C(C)C)c2cc(C)c(-c3c(C)cc4c(C(C)C)c(O)c(O)c(C=NC(Cc5ccccc5)C(=O)OC)c4c3O)c(O)c12 (centres undefined) ) is 9.7
